Read-out: Cytochrome P450 7A1 (Homo sapiens)
Experiment: LTEA_HepaRG_CYP7A1: Life Technologies and Expression Analysis (LTEA) Assay for Cytochrome P450 7A1 (CYP7A1) using HepaRG (AID 2283496)
Settings: mRNA level, 48 h; actives raise or lower the signal
Active and inactive are the calls of the source. The calls were made as follows: active = hit-call score of the fitted dose curve at least 0.9, where 1 is the maximum; inactive = score below 0.9.
Please reply with one of these outcomes: active, inactive

q: Just curious, what result did `Nc1ccc(-c2ccc(N)cc2)cc1` get here?
a: active

q: Next compound: `c1cc2ccc3cccc4ccc(c1)c2c34`
a: inactive

q: Next compound: CC(C)C(=O)OCC(C)(C)C(OC(=O)C(C)C)C(C)C (centres undefined)
a: inactive

q: Next compound: `CCC(C)(CC)c1cc(NC(=O)c2c(OC)cccc2OC)on1`
a: inactive

q: Next compound: `Cc1ccc(O)c(C)c1`
a: inactive

q: Next compound: CCC(C)c1cc([N+](=O)[O-])cc([N+](=O)[O-])c1O (centres undefined)
a: active

q: Next compound: `Oc1ccc(C(c2ccc(O)cc2)(C(F)(F)F)C(F)(F)F)cc1`
a: active

q: Next compound: `CC#Cc1cc(C)nc(Nc2ccccc2)n1`
a: active

q: Next compound: `C=CC(N)=O`
a: inactive

q: Next compound: `CO/C=C(/C(=O)OC)c1ccccc1COc1cccc(C(F)(F)F)n1`
a: active

q: Next compound: `Cc1ccccc1[N+](=O)[O-]`
a: inactive

q: Next compound: `Oc1c(Cl)c(Cl)c(Cl)c(Cl)c1Cl`
a: active

q: Next compound: `CC1=C2C[C@H]3[C@@H](CC=C4C[C@@H](O)CC[C@@]43C)[C@@H]2CC[C@]12O[C@@H]1C[C@H](C)CN[C@H]1[C@H]2C`
a: inactive

q: Next compound: `ClC1=C(Cl)[C@]2(Cl)[C@@H]3[C@@H](Cl)[C@H]4O[C@H]4[C@@H]3C1(Cl)C2(Cl)Cl`
a: active

q: Next compound: `C=CC(=O)NCNC(=O)C=C`
a: inactive

q: Next compound: `C[C@]12CCC(=O)C=C1CC[C@@H]1[C@@H]2CC[C@]2(C)C(=O)CC[C@@H]12`
a: active

q: Next compound: `O=S(=O)(O)C(F)(F)C(F)(F)C(F)(F)C(F)(F)C(F)(F)C(F)(F)F`
a: inactive

q: Next compound: `CCC(=O)O[C@H]1CC[C@H]2[C@@H]3CCC4=CC(=O)CC[C@]4(C)[C@H]3CC[C@]12C`
a: active

q: Next compound: `CCCCCCCCCc1ccc(O)cc1`
a: inactive

q: Next compound: `CCC(C)(c1ccc(O)cc1)c1ccc(O)cc1`
a: active

q: Next compound: `CN(C)c1nc(=O)n(C2CCCCC2)c(=O)n1C`
a: inactive

q: Next compound: `CCCN(CCC)N=O`
a: inactive

q: Next compound: `O=C(NC(=O)c1c(F)cccc1F)Nc1cc(Cl)c(OC(F)(F)C(F)F)c(Cl)c1`
a: active

q: Next compound: `Cc1cc2c3c(c1)C(c1ccccc1)=N[C@@H](NC(=O)c1ccncc1)C(=O)N3CC2`
a: active

* * *

Target: frog Thyroid hormone Receptor alpha (TRa), thra-a (gene 397942) (UniProt P15204)
Sequence (P15204 whole entry, looked up): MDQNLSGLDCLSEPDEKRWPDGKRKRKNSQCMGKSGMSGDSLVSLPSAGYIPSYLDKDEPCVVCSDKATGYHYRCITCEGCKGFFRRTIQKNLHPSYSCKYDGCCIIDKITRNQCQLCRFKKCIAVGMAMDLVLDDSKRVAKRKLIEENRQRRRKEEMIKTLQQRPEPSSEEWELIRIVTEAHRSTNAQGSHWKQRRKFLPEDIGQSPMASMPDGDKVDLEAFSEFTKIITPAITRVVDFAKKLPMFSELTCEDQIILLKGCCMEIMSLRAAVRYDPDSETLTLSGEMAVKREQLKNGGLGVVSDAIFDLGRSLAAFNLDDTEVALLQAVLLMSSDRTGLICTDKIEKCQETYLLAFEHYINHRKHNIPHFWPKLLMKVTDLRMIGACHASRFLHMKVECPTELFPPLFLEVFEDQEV
Assay: ATG_frTRa_XSP2: Attagene TRANS-FACTORIAL Multi-Species (XSP2) HepG2 Assay for frog Thyroid hormone Receptor alpha (TRa) (AID 2283839)
Inconclusive results are not listed. The source made the active and inactive calls. The calls were made as follows: active = hit-call score of the fitted dose curve at least 0.9, where 1 is the maximum; inconclusive = response in the unintended direction; inactive = score below 0.9.
Please reply with one of these outcomes: 1.0 for active, 0.0 for inactive

q: Just curious, what result did `Oc1ccc(C(c2ccc(O)cc2)(C(F)(F)F)C(F)(F)F)cc1` get here?
a: 0.0

q: Next molecule: `Cc1cc(-c2ccc(N)c(C)c2)ccc1N`
a: 0.0

q: Next molecule: `CCOC(=O)C(O)(c1ccc(Cl)cc1)c1ccc(Cl)cc1`
a: 0.0

q: Next molecule: `C[C@]12CCC(=O)C=C1CC[C@@H]1[C@@H]2CC[C@]2(C)C(=O)CC[C@@H]12`
a: 0.0

q: Next molecule: `CC(C)(O)C(=O)Nc1ccc([N+](=O)[O-])c(C(F)(F)F)c1`
a: 1.0

q: Next molecule: `CC(c1ccc(O)cc1)(c1ccc(O)cc1)c1ccc(O)cc1`
a: 0.0

q: Next molecule: `ClC(Cl)=C(c1ccc(Cl)cc1)c1ccc(Cl)cc1`
a: 0.0

Every entry's value here was drawn from PubChem BioAssay (EPA / NIEHS).
